These entries and their values trace back to ChEMBL document CHEMBL1139081.

TEST_PROTOCOL: Ratio of drug level in brain to plasma in rat after 3 hrs
Assay type: ADME
CONDITIONS: brain and plasma
OUTCOME_MEASURE: Kp at 3 h

{"STRUCTURE_NOTATION": "Cc1cccc(NC(=O)c2cccc3oc(=O)[nH]c23)n1", "RECORDED_NUMBER": 0.06}

====

Entries and their Ki values follow.
EXPERIMENTAL_SYSTEM: Metabotropic glutamate receptor 5 (Homo sapiens)
Sequence (P41594 whole entry): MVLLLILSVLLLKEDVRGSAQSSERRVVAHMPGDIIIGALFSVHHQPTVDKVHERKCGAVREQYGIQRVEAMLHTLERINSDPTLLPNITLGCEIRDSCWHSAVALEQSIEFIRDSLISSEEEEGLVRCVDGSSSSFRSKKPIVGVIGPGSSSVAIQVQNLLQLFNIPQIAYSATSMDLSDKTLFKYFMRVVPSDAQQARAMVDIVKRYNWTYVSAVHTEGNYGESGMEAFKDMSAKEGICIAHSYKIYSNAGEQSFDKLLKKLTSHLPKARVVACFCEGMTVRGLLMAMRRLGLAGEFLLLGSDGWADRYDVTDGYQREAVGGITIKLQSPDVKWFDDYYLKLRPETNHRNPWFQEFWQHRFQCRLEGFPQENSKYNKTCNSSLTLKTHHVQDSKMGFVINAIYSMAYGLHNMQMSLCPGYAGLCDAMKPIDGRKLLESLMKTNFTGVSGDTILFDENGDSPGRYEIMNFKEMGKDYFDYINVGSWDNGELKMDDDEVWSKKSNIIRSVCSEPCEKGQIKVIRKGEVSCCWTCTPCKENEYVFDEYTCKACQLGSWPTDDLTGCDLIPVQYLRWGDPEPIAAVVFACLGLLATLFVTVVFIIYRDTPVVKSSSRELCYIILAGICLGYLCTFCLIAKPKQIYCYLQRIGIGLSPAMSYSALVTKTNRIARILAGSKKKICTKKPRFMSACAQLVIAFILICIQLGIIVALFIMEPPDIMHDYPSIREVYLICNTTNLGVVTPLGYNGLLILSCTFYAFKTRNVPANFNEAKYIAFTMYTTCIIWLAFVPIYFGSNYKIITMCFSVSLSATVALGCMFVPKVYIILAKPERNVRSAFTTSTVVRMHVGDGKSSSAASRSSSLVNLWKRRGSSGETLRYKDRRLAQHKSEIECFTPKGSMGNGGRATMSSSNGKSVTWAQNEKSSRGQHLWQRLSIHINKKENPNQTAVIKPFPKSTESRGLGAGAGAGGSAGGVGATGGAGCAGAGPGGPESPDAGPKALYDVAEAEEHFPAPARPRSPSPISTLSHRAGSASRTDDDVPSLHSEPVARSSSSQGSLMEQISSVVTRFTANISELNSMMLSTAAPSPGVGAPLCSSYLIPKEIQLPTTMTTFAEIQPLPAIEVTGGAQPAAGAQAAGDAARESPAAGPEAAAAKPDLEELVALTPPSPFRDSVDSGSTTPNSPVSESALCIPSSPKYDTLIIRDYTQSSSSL
OUTCOME_MEASURE: Ki (µM)

{"STRUCTURE_NOTATION": "Cc1cccc(NC(=O)c2cccc3oc(=O)[nH]c23)n1", "UNIT_OF_MEASUREMENT": "µM", "QUALIFIER_SIGN": "=", "RECORDED_NUMBER": 0.095}
{"STRUCTURE_NOTATION": "O=C(Nc1cccc(Cl)c1)c1cccc2nc[nH]c12", "UNIT_OF_MEASUREMENT": "µM", "QUALIFIER_SIGN": ">", "RECORDED_NUMBER": 10}
{"STRUCTURE_NOTATION": "CC(=O)Nc1ccccc1C(=O)Nc1cccc(Cl)c1", "UNIT_OF_MEASUREMENT": "µM", "QUALIFIER_SIGN": ">", "RECORDED_NUMBER": 10}
{"STRUCTURE_NOTATION": "O=C(Nc1cccc(Cl)c1)c1cccc2[nH]c(=O)[nH]c12", "UNIT_OF_MEASUREMENT": "µM", "QUALIFIER_SIGN": "=", "RECORDED_NUMBER": 3.9}
